All figures here come from ChEMBL document CHEMBL5210121.

tgt: Discoidin domain-containing receptor 2 (Homo sapiens)
test.details: Affinity On-target Cellular interaction (NanoBRET assay (HEK293T cells)) EUB0000156b DDR2
Set-up: mode of action Negative control for DDR-TRK-1 (D2202-1), recommended concentration 1 uM
measure.name: pIC50
Notebook: values listed as pIC50 are -log10 of the concentration (mol/L).

Noted for `CN1CCN(Cc2cc(NC(=O)c3ccc4c(c3)CN(c3ccccc3)CC4)cc(C(F)(F)F)c2)CC1` : its pIC50 reads 5.06

---

tgt: Bromodomain adjacent to zinc finger domain protein 2A (Homo sapiens, UniProt Q9UIF9)
test.details: Affinity On-target Cellular interaction (Chemoproteomic competition binding assay (endogenous full-length BAZ2A from HuT78 extracts)) EUB0000267b BAZ2A
pKd: −log10 of the molar value.
measure.name: pKd

pKd for Bromodomain adjacent to zinc finger domain protein 2A (Homo sapiens, UniProt Q9UIF9) with input `CCCOc1ccn2c(C(C)=O)cc(-c3cccc(OC)c3)c2c1` equals < 5.00

---

tgt: RAC-beta serine/threonine-protein kinase (Homo sapiens)
Sequence (P31751 whole entry): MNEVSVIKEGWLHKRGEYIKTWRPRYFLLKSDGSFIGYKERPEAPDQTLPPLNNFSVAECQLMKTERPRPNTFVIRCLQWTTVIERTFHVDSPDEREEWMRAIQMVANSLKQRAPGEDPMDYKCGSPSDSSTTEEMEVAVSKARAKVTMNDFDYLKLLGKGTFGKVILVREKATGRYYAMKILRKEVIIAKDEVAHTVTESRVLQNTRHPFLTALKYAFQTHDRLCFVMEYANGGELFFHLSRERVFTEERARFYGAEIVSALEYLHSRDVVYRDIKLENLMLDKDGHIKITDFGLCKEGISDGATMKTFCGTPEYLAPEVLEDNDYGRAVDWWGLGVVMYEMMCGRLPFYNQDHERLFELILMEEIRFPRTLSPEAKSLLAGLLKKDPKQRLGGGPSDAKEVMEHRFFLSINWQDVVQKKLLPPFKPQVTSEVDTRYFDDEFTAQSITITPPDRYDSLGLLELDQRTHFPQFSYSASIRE
test.details: Affinity On-target Cellular interaction (NanoBRET assay (HEK293T cells)) EUB0000721a AKT2
measure.name: pIC50
Notebook: values listed as pIC50 are -log10 of the concentration (mol/L).

Noted for `C=CC(=O)Nc1ccc2[nH]c(=O)n(C3CCN(C(=O)c4ccc(-c5nc6cc[nH]c(=O)c6cc5-c5ccccc5)cc4)CC3)c2c1` : its pIC50 reads 5.08

---

tgt: Leucine-rich repeat serine/threonine-protein kinase 2 (Homo sapiens, UniProt Q5S007)
Sequence (Q5S007 whole entry): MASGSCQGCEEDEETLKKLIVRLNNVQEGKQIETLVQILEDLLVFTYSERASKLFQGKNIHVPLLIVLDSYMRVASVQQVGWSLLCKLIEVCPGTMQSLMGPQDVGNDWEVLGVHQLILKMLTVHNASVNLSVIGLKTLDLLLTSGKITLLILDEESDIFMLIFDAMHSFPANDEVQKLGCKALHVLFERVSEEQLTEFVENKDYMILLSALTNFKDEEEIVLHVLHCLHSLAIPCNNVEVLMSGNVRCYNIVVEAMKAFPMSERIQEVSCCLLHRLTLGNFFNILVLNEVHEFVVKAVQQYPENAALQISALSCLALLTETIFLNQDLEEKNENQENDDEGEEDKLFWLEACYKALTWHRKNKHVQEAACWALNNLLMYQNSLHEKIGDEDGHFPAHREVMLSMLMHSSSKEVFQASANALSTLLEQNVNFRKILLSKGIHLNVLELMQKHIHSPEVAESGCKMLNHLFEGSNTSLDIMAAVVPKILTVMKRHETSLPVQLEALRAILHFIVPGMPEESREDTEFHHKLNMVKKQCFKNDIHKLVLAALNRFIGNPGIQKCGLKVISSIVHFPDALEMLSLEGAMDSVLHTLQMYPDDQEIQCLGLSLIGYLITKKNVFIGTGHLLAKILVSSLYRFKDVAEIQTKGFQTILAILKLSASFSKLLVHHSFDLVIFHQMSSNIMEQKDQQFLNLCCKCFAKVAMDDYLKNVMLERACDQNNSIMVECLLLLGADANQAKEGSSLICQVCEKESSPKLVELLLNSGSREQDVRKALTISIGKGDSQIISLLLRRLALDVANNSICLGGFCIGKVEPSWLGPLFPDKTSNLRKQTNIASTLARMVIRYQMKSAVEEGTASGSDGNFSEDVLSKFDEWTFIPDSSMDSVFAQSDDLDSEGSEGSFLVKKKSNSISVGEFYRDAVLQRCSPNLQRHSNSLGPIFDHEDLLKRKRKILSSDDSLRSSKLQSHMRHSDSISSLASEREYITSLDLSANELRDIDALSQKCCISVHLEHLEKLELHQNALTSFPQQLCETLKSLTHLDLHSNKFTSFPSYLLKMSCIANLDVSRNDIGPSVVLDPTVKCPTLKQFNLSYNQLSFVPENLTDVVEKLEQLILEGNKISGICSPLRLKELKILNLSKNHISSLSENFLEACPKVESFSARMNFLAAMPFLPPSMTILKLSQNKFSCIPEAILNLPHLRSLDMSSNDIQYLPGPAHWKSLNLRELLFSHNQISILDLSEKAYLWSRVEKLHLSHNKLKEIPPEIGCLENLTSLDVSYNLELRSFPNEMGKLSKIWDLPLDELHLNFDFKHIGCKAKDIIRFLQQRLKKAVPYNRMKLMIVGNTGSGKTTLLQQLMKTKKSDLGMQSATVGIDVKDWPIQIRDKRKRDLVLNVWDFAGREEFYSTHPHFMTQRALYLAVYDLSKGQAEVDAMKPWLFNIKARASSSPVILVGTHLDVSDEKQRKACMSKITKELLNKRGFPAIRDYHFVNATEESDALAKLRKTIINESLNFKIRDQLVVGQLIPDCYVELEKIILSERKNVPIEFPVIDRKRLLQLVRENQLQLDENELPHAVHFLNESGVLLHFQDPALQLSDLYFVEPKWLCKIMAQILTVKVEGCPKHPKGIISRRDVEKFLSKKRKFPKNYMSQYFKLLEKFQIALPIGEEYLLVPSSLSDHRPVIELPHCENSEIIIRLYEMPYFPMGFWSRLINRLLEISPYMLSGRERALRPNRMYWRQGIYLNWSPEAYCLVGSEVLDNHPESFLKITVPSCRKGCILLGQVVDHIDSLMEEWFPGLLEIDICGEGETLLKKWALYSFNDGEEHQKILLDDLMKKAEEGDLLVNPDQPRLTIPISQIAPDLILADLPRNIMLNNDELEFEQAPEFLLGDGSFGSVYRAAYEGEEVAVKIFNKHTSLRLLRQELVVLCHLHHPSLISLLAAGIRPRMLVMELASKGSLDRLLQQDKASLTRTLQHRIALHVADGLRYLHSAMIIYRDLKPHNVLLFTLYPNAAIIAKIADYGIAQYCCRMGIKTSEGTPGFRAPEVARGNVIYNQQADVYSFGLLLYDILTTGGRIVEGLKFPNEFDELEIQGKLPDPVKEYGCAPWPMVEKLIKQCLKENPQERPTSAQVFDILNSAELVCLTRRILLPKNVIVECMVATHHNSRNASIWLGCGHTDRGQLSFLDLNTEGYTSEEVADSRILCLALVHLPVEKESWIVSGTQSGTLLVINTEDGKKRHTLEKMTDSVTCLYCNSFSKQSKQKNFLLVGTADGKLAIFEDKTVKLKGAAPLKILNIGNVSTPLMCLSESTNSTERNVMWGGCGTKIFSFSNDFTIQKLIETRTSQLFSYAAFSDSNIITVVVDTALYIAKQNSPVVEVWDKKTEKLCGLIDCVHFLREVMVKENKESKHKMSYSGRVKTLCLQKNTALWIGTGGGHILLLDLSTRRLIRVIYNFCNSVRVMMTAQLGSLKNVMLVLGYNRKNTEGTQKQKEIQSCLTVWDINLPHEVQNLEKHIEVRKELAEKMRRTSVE
test.details: Affinity On-target Cellular interaction (NanoBRET assay (HEK293T cells)) EUB0000706a LRRK2
measure.name: EC50 (nM)
The reply should contain only the number, in nM.

Noted for C[C@@H]1CN(c2cc(-c3nn(C)c4ccc(OC5(C)CC5)cc34)ncn2)C[C@H](C)O1 [MLi-2-NC] : its EC50 reads 421

---

tgt: BDNF/NT-3 growth factors receptor (Homo sapiens)
Sequence (Q16620 whole entry): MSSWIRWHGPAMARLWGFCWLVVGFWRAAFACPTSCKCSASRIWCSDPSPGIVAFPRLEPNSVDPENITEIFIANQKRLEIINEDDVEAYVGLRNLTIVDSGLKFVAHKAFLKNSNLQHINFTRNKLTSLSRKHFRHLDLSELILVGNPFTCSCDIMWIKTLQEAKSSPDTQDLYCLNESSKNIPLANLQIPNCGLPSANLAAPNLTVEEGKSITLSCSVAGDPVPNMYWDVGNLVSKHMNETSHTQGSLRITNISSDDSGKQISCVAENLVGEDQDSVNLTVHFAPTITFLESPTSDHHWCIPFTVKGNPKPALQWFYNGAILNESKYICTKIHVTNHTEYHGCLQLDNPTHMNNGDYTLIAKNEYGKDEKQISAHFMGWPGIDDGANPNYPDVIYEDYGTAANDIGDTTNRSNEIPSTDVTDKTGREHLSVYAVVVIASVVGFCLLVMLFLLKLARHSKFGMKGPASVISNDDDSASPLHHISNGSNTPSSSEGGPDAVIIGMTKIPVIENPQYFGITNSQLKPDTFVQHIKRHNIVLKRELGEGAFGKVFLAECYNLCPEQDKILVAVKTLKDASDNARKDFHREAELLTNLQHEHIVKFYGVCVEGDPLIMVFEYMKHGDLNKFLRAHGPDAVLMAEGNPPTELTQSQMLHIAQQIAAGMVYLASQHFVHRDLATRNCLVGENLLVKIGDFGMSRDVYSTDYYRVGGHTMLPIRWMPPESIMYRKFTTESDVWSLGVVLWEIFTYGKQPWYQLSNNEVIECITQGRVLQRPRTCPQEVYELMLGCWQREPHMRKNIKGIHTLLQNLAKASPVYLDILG
test.details: Affinity On-target Cellular interaction (NanoBRET assay (HEK293T cells)) EUB0000156b NTRK2
measure.name: IC50

Noted for `CN1CCN(Cc2cc(NC(=O)c3ccc4c(c3)CN(c3ccccc3)CC4)cc(C(F)(F)F)c2)CC1` : its IC50 reads 6.8 µM

---

tgt: Nucleosome-remodeling factor subunit BPTF (Homo sapiens, UniProt Q12830)
measure.name: pIC50
Notebook: values listed as pIC50 are -log10 of the concentration (mol/L).

Noted for `Cc1c(Nc2ccc(S(=O)(=O)N3CCN(C)CC3)cc2F)nc2ccc(-c3cnn(C4CC4)c3)cn2c1=O` : its pIC50 reads 7.80

---

tgt: Protein farnesyltransferase subunit beta (Homo sapiens, UniProt P49356)
Sequence (P49356 whole entry): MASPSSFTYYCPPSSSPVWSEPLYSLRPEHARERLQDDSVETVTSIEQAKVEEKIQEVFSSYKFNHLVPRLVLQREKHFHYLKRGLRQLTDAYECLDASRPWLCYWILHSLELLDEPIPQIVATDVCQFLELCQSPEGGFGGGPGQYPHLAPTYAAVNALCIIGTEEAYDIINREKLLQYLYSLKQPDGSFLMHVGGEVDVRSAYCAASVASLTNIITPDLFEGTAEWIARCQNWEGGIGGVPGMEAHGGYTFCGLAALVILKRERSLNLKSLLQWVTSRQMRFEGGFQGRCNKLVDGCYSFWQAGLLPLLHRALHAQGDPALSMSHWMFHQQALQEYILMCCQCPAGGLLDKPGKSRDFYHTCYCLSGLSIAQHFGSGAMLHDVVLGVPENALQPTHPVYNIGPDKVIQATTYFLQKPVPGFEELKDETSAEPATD
test.details: Affinity On-target Cellular interaction (Western Blot (inhibition of Ras in NIH 3T3 H-Ras cells)) EUB0000289c FNTB
measure.name: pEC50
Notebook: values listed as pEC50 are -log10 of the concentration (mol/L).

pEC50 for Protein farnesyltransferase subunit beta (Homo sapiens, UniProt P49356) with input Cn1cncc1[C@](O)(COc1ccc(C#N)cc1-c1ccc(OC(F)(F)F)cc1)c1ccc(C#N)cc1 [ABT-100] equals 9.14

---

test.details: Affinity On-target Cellular interaction (Measles Virus Inhibition Assay) EUB0000745a DHODH
measure.name: pIC50
Notebook: values listed as pIC50 are -log10 of the concentration (mol/L).

Noted for `Cc1c(Oc2ccc(F)cc2)c(OC(C)C)nn1-c1ccc(C2CC2)cn1` : its pIC50 reads 5.92

---

tgt: Inhibitor of nuclear factor kappa-B kinase subunit epsilon (Homo sapiens, UniProt Q14164)
Sequence (Q14164 whole entry): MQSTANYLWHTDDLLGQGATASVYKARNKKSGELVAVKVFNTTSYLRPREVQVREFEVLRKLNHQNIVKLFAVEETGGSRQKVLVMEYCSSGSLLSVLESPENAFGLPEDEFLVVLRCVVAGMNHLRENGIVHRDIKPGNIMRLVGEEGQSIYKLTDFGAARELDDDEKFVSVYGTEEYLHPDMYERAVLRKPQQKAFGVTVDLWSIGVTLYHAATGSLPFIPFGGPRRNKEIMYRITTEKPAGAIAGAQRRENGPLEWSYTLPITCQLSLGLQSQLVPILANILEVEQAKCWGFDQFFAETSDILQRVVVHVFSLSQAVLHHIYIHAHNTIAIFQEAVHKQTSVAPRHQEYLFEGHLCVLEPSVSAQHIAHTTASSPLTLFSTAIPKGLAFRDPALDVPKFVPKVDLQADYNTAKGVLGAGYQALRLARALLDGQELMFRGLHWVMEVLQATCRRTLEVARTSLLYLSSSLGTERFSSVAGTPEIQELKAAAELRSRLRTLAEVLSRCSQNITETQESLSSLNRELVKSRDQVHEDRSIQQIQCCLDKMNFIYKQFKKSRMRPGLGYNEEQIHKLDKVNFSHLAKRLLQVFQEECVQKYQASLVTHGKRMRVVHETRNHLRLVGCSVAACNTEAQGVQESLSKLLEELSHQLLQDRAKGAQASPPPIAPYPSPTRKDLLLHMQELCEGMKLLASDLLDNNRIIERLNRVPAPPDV
measure.name: IC50

Noted for `CN(C)c1ncnc(-c2ccc3nc(Nc4cc(CN5CCN(C(=O)CC(F)(F)F)CC5)ccn4)[nH]c3c2)c1Cl` : its IC50 reads > 27 µM

---

tgt: High affinity nerve growth factor receptor (Homo sapiens)
Sequence (P04629 whole entry): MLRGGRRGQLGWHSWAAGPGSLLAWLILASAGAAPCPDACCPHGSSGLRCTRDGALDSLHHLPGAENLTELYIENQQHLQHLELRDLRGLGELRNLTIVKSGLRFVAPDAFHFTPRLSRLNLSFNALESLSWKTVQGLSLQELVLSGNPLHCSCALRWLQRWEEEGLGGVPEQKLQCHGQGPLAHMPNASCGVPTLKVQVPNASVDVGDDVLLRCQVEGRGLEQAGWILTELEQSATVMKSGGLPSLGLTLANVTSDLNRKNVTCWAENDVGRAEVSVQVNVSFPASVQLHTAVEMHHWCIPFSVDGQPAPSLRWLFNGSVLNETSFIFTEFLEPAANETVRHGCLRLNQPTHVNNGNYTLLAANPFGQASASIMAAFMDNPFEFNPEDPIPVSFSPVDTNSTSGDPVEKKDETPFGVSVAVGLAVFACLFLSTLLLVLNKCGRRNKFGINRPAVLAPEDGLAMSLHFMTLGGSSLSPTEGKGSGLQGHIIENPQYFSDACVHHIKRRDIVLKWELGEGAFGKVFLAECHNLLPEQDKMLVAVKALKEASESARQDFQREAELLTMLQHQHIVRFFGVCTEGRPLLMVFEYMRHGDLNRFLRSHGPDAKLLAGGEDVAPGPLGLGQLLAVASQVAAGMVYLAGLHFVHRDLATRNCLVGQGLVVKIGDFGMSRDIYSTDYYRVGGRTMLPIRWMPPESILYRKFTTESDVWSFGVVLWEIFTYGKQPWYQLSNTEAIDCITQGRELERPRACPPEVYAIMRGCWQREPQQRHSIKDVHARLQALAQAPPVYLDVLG
test.details: Affinity On-target Cellular interaction (NanoBRET assay (HEK293T cells)) EUB0000156b NTRK1
measure.name: pIC50
Notebook: values listed as pIC50 are -log10 of the concentration (mol/L).

Noted for `CN1CCN(Cc2cc(NC(=O)c3ccc4c(c3)CN(c3ccccc3)CC4)cc(C(F)(F)F)c2)CC1` : its pIC50 reads 4.71

---

tgt: Bifunctional epoxide hydrolase 2 (Homo sapiens, UniProt P34913)
Sequence (P34913 whole entry): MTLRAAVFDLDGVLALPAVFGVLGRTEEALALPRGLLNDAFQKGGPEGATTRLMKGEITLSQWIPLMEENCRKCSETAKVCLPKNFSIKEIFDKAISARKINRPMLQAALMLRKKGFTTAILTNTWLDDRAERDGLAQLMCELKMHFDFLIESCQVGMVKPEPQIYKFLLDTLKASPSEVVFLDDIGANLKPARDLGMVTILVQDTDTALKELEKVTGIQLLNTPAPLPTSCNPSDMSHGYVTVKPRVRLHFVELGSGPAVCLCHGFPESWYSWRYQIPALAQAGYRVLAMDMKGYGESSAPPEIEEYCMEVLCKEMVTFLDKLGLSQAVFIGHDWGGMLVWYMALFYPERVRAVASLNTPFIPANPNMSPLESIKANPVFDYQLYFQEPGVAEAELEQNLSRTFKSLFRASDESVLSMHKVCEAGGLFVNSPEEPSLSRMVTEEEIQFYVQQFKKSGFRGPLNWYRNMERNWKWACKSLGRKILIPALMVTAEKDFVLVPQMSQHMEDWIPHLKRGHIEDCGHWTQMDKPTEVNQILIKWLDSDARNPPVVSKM
test.details: Affinity On-target Cellular interaction (ELISA (inhibition of sEH in human Hep G2 cells)) EUB0000542a EPHX2
measure.name: IC50

IC50 for Bifunctional epoxide hydrolase 2 (Homo sapiens, UniProt P34913) with input `CCOCCn1cc(C(=O)Nc2ccc(-n3nc(-c4cccnc4)cc3C(F)(F)F)cn2)ccc1=O` equals < 1 nM

---

tgt: Bromodomain adjacent to zinc finger domain protein 2B (Homo sapiens)
test.details: Affinity On-target Cellular interaction (Chemoproteomic competition binding assay (endogenous full-length BAZ2B captured on the GSK8573 affinity matrix from HuT-78 cell lysate) ) EUB0000267b BAZ2B
measure.name: Kd

Noted for `CCCOc1ccn2c(C(C)=O)cc(-c3cccc(OC)c3)c2c1` : its Kd reads > 10 µM

---

Target sequence: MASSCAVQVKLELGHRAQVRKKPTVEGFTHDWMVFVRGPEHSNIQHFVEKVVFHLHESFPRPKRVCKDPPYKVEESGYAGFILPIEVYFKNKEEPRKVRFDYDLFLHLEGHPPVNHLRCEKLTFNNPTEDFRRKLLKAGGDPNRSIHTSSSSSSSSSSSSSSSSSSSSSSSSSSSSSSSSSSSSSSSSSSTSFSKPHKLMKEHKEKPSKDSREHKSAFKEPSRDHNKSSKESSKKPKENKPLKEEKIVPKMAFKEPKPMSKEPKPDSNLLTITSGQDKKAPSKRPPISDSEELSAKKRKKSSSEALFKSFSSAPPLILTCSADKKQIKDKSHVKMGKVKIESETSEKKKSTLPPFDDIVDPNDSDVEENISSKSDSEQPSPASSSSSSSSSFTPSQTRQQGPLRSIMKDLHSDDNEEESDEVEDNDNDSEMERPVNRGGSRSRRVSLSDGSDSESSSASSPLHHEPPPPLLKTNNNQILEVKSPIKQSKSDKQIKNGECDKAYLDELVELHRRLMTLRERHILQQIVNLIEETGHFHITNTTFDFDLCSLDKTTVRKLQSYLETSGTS
measure.name: IC50
Answer with the number, then the unit.

Noted for `CN(C)C(=O)c1ccc(-c2cc(C(=O)N[C@@H]3CCc4ccccc43)no2)cc1O` : its IC50 reads 0.76 µM
